Target: T1, HLA-A*0201 on T2 cells (human)
T1 construct: whole, on cells; also called HLA-A2
Test: T2 cell binding assay, flow cytometry
Square brackets hold non-standard residues; d marks the D form. Ends that are not written are not given here. Nle = CCCC[C@H](N)C(=O)O; Nva = CCC[C@H](N)C(=O)O

- Binder: "FVSEK[Nle]FYV (also called FVSEK(Nle)FYV) [SSX2 41-49 (K41F, A42V, I46Nle)]"
  EC50, µM: 12.8
- Binder: "FVSEKIFXV (4-fluorophenylalanine (Phe(4-F)) at position 48 (P8), also called FVSEKIF(Phe-4F)V) [SSX2 41-49 (K41F, A42V, Y48(Phe-4F))]"
  EC50, µM: 10.6
- Binder: "FVSEKLFSA [SSX2 41-49 (K41F, A42V, I46L, Y48S, V49A)]"
  EC50, µM: 6.2
- Binder: "FVSEK[Nva]FYV (also called FVSEK(Nva)FYV) [SSX2 41-49 (K41F, A42V, I46Nva)]"
  EC50, µM: 6.21
